Kindly state relative viability for each of the entries shown.
# Tested on: LOU-NH91
# Protocol details: relative viability (nuclei count vs DMSO), 5 days (fraction); higher = more cells survive
# Condition set: first compound 0.03162 µM

Compound	relative viability
NC(=O)Nc1cc(-c2cccc(F)c2)sc1C(=O)N[C@H]1CCCNC1 [AZD7762] + CC1(C)CCC(c2ccc(Cl)cc2)=C(CN2CCN(c3ccc(C(=O)NS(=O)(=O)c4ccc(N[C@H](CCN5CCOCC5)CSc5ccccc5)c(S(=O)(=O)C(F)(F)F)c4)cc3)CC2)C1 [Navitoclax] (partner 0.5 µM)	0.673

For every listed record, write down its relative viability.
1. NC(=O)Nc1cc(-c2cccc(F)c2)sc1C(=O)N[C@H]1CCCNC1 [AZD7762] + Cc1nc(Nc2ncc(C(=O)Nc3c(C)cccc3Cl)s2)cc(N2CCN(CCO)CC2)n1 [Dasatinib] (partner 0.075 µM)
2. NC(=O)Nc1cc(-c2cccc(F)c2)sc1C(=O)N[C@H]1CCCNC1 [AZD7762] + O=C(c1cc(Cc2n[nH]c(=O)c3ccccc23)ccc1F)N1CCN(C(=O)C2CC2)CC1 [Olaparib] (partner 8 µM)
3. NC(=O)Nc1cc(-c2cccc(F)c2)sc1C(=O)N[C@H]1CCCNC1 [AZD7762] + CC(=O)c1c(C)c2cnc(Nc3ccc(N4CCNCC4)cn3)nc2n(C2CCCC2)c1=O [Palbociclib] (partner 0.5 µM)

# output
1: 0.596; 2: 0.914; 3: 0.525

====

# Tested on: LOU-NH91
# Protocol details: relative viability (nuclei count vs DMSO), 5 days (fraction); higher = more cells survive
# Condition set: first compound 0.1581 µM
Measurement type: relative viability
Answers are plain numbers.

// below: answered molecules
Molecule	relative viability
CC1(C)CCC(c2ccc(Cl)cc2)=C(CN2CCN(c3ccc(C(=O)NS(=O)(=O)c4ccc(N[C@H](CCN5CCOCC5)CSc5ccccc5)c(S(=O)(=O)C(F)(F)F)c4)cc3)CC2)C1 [Navitoclax] + N=C(N)NC(=N)NCCc1ccccc1 [Phenformin] (partner 250 µM)	0.652
CC1(C)CCC(c2ccc(Cl)cc2)=C(CN2CCN(c3ccc(C(=O)NS(=O)(=O)c4ccc(N[C@H](CCN5CCOCC5)CSc5ccccc5)c(S(=O)(=O)C(F)(F)F)c4)cc3)CC2)C1 [Navitoclax] + CC(=O)c1c(C)c2cnc(Nc3ccc(N4CCNCC4)cn3)nc2n(C2CCCC2)c1=O [Palbociclib] (partner 0.5 µM)	0.477

// moving on: another record for relative viability
# input Field: relative viability (LOU-NH91). Entry: CC1(C)CCC(c2ccc(Cl)cc2)=C(CN2CCN(c3ccc(C(=O)NS(=O)(=O)c4ccc(N[C@H](CCN5CCOCC5)CSc5ccccc5)c(S(=O)(=O)C(F)(F)F)c4)cc3)CC2)C1 [Navitoclax] + CS(=O)(=O)N1CCN(Cc2cc3nc(-c4cccc5[nH]ncc45)nc(N4CCOCC4)c3s2)CC1 [Pictilisib] (partner 1 µM)
# output 0.496

====

# Test system: SK-LU-1
# Protocol details: relative viability (nuclei count vs DMSO), 5 days (fraction); higher = more cells survive
# Condition set: first compound 0.005 µM
Kindly state relative viability for each of the entries shown.
One number for each entry.

Compound	Value measured
CC1(C)CCC(c2ccc(Cl)cc2)=C(CN2CCN(c3ccc(C(=O)NS(=O)(=O)c4ccc(N[C@H](CCN5CCOCC5)CSc5ccccc5)c(S(=O)(=O)C(F)(F)F)c4)cc3)CC2)C1 [Navitoclax] + Cc1nc(Nc2ncc(C(=O)Nc3c(C)cccc3Cl)s2)cc(N2CCN(CCO)CC2)n1 [Dasatinib] (partner 0.075 µM)	0.182
CC1(C)CCC(c2ccc(Cl)cc2)=C(CN2CCN(c3ccc(C(=O)NS(=O)(=O)c4ccc(N[C@H](CCN5CCOCC5)CSc5ccccc5)c(S(=O)(=O)C(F)(F)F)c4)cc3)CC2)C1 [Navitoclax] + CC(=O)Nc1cccc(-n2c(=O)n(C3CC3)c(=O)c3c(Nc4ccc(I)cc4F)n(C)c(=O)c(C)c32)c1 [Trametinib] (partner 0.02 µM)	0.716
CC1(C)CCC(c2ccc(Cl)cc2)=C(CN2CCN(c3ccc(C(=O)NS(=O)(=O)c4ccc(N[C@H](CCN5CCOCC5)CSc5ccccc5)c(S(=O)(=O)C(F)(F)F)c4)cc3)CC2)C1 [Navitoclax] + Cc1cc(Nc2cc(N3CCN(C)CC3)nc(Sc3ccc(NC(=O)C4CC4)cc3)n2)n[nH]1 [Tozasertib] (partner 0.1 µM)	0.326

// moving on: another record for relative viability
# input Field: relative viability (SK-LU-1). Entry: CC1(C)CCC(c2ccc(Cl)cc2)=C(CN2CCN(c3ccc(C(=O)NS(=O)(=O)c4ccc(N[C@H](CCN5CCOCC5)CSc5ccccc5)c(S(=O)(=O)C(F)(F)F)c4)cc3)CC2)C1 [Navitoclax] + CS(=O)(=O)N1CCN(Cc2cc3nc(-c4cccc5[nH]ncc45)nc(N4CCOCC4)c3s2)CC1 [Pictilisib] (partner 1 µM)
# output 0.557

====

# Tested on: NCI-H322M
# Protocol details: relative viability (nuclei count vs DMSO), 5 days (fraction); higher = more cells survive
# Condition set: first compound 0.3162 µM
Measurement type: relative viability
Numbers only.

// below: answered compounds
Compound	System tested	relative viability
NC(=O)Nc1cc(-c2cccc(F)c2)sc1C(=O)N[C@H]1CCCNC1 [AZD7762] + CS(=O)(=O)CCNCc1ccc(-c2ccc3ncnc(Nc4ccc(OCc5cccc(F)c5)c(Cl)c4)c3c2)o1 [Lapatinib] (partner 2 µM)	NCI-H322M	0.535
NC(=O)Nc1cc(-c2cccc(F)c2)sc1C(=O)N[C@H]1CCCNC1 [AZD7762] + CC(=O)c1c(C)c2cnc(Nc3ccc(N4CCNCC4)cn3)nc2n(C2CCCC2)c1=O [Palbociclib] (partner 0.5 µM)	NCI-H322M	0.523

// moving on: another record for relative viability
# input Using the record for NC(=O)Nc1cc(-c2cccc(F)c2)sc1C(=O)N[C@H]1CCCNC1 [AZD7762] + O=C(c1cc(Cc2n[nH]c(=O)c3ccccc23)ccc1F)N1CCN(C(=O)C2CC2)CC1 [Olaparib] (partner 8 µM) , report its relative viability.
# output 0.627

====

# System: EMC-BAC-2
# Protocol details: relative viability (nuclei count vs DMSO), 5 days (fraction); higher = more cells survive
# Condition set: first compound 0.8 µM
Measurement type: relative viability

Molecule	relative viability
Oc1nc(-c2ccc(C(F)(F)F)cc2)nc2c1CSCC2 [XAV939] + Nc1nc2[nH]cc(CCc3ccc(C(=O)N[C@@H](CCC(=O)O)C(=O)O)cc3)c2c(=O)[nH]1 [Pemetrexed] (partner 0.2 µM)	0.412
Oc1nc(-c2ccc(C(F)(F)F)cc2)nc2c1CSCC2 [XAV939] + CC(=O)c1c(C)c2cnc(Nc3ccc(N4CCNCC4)cn3)nc2n(C2CCCC2)c1=O [Palbociclib] (partner 0.5 µM)	0.478
C=C1C(=O)O[C@@H](CCCCCCCC)[C@@H]1C(=O)O [C-75] + Cc1nc(NC(=O)N2CCC[C@H]2C(N)=O)sc1-c1ccnc(C(C)(C)C(F)(F)F)c1 [Alpelisib] (partner 2 µM)	0.717

For every listed record, write down its relative viability.
1. C=C1C(=O)O[C@@H](CCCCCCCC)[C@@H]1C(=O)O [C-75] + CC(=O)c1c(C)c2cnc(Nc3ccc(N4CCNCC4)cn3)nc2n(C2CCCC2)c1=O [Palbociclib] (partner 0.5 µM)
2. C=C1C(=O)O[C@@H](CCCCCCCC)[C@@H]1C(=O)O [C-75] + CS(=O)(=O)CCNCc1ccc(-c2ccc3ncnc(Nc4ccc(OCc5cccc(F)c5)c(Cl)c4)c3c2)o1 [Lapatinib] (partner 2 µM)

# output
1: 0.515; 2: 0.882

====

# Test system: NCI-H1993
# Protocol details: relative viability (nuclei count vs DMSO), 5 days (fraction); higher = more cells survive
# Condition set: first compound 2.53 µM
Kindly state relative viability for each of the entries shown.
One number for each entry.

// below: answered compounds
Compound	Measurement type	Value measured
C=C1C(=O)O[C@@H](CCCCCCCC)[C@@H]1C(=O)O [C-75] + Nc1nc2[nH]cc(CCc3ccc(C(=O)N[C@@H](CCC(=O)O)C(=O)O)cc3)c2c(=O)[nH]1 [Pemetrexed] (partner 0.2 µM)	relative viability	0.652
Oc1nc(-c2ccc(C(F)(F)F)cc2)nc2c1CSCC2 [XAV939] + NC(=O)Nc1cc(-c2cccc(F)c2)sc1C(=O)N[C@H]1CCCNC1 [AZD7762] (partner 0.2 µM)	relative viability	0.653
C=C1C(=O)O[C@@H](CCCCCCCC)[C@@H]1C(=O)O [C-75] + Nc1ncn([C@H]2C[C@H](O)[C@@H](CO)O2)c(=O)n1 [Decitabine] (partner 2 µM)	relative viability	0.549
Oc1nc(-c2ccc(C(F)(F)F)cc2)nc2c1CSCC2 [XAV939] + CC(=O)c1c(C)c2cnc(Nc3ccc(N4CCNCC4)cn3)nc2n(C2CCCC2)c1=O [Palbociclib] (partner 0.5 µM)	relative viability	0.5
Oc1nc(-c2ccc(C(F)(F)F)cc2)nc2c1CSCC2 [XAV939] + C[C@@H](Oc1cc(-c2cnn(C3CCNCC3)c2)cnc1N)c1c(Cl)ccc(F)c1Cl [Crizotinib] (partner 1 µM)	relative viability	0.768

For every listed record, write down its relative viability.
1. C=C1C(=O)O[C@@H](CCCCCCCC)[C@@H]1C(=O)O [C-75] + CC(C)C[C@H](NC(=O)[C@H](Cc1ccccc1)NC(=O)c1cnccn1)B(O)O [Bortezomib] (partner 0.002 µM)
2. C=C1C(=O)O[C@@H](CCCCCCCC)[C@@H]1C(=O)O [C-75] + N=C(N)NC(=N)NCCc1ccccc1 [Phenformin] (partner 250 µM)
3. Oc1nc(-c2ccc(C(F)(F)F)cc2)nc2c1CSCC2 [XAV939] + COc1cccc2cc(-c3nc([C@H]4CC[C@H](C(=O)O)CC4)n4ncnc(N)c34)[nH]c12 [OSI-027] (partner 0.5 µM)
4. C=C1C(=O)O[C@@H](CCCCCCCC)[C@@H]1C(=O)O [C-75] + CCNC(=O)c1noc(-c2cc(C(C)C)c(O)cc2O)c1-c1ccc(CN2CCOCC2)cc1 [Luminespib] (partner 0.01 µM)

# output
0.54
0.46
0.461
0.875

# input Using the record for C=C1C(=O)O[C@@H](CCCCCCCC)[C@@H]1C(=O)O [C-75] + Cc1nc(NC(=O)N2CCC[C@H]2C(N)=O)sc1-c1ccnc(C(C)(C)C(F)(F)F)c1 [Alpelisib] (partner 2 µM) , report its relative viability.
# output 0.637
